Measured activity, negative = inhibition by item
Experiment: Stat Signaling Pathway (AID 446);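 also: ME-180 cervical cancer cells given 40 pM IL-6 alongside compound; SIE-controlled beta-lactamase reporter measured as 460/530 nm FRET emission ratio; % is scaled to controls: 0 for no effect and ±100 for the full control effect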
Settings: ME-180 SIE beta-lactamase reporter, IL-6 stimulated, 5 h; at 7.69 µM (top of the series) unless noted
Inconclusive results are not listed. Activity calls are given as the source filed them. Calls follow the shape of the dose curve; as a rule, active = well fitted curve in either direction with a large enough effect (not every such curve was filed as active); inconclusive = small, poorly fitted or top-dose-only effect, or another doubt; inactive = flat fitted curve, though single readings scatter.

Mol	activity, negative = inhibition
N#Cc1ccc(CN2CC[C@@]3(CCCN(C(=O)c4ccco4)C3)C2)cc1	12.6% (inactive)
CCN(CC)CC#CCOC(=O)[C@@](O)(c1ccccc1)C1CCCCC1	-21.9% [at 38 µM] (inactive)
CN(C)Cc1ccccc1-c1cncnc1NCc1ccccc1	-4.85% (inactive)
COc1cccc(-c2cc(NCc3cccc(C)c3)ncn2)c1	-11.9% (inactive)
COCCn1c(=O)c(-c2cc(F)cc(F)c2)nc2cnc(N(C)C)nc21	-2% (inactive)
N#Cc1ccc(CN2CCC3(CC2)CCN(C(=O)c2cnccn2)CC3)cc1	-7.54% (inactive)
Cc1nc2cnc(Oc3ccccc3)nc2n(CCC#N)c1=O	-6.56% (inactive)
O=c1c(-c2cccc(Cl)c2)nc2cncnc2n1Cc1ccc(F)cc1	-5.55% (inactive)
O=C(Nc1cccc(F)c1)N1CC2(CCN(C(=O)c3cnccn3)CC2)C1	-2.15% (inactive)
O=C(Nc1ccccc1)N1CC[C@@]2(CCCN(C(=O)c3cccc(F)c3)C2)C1	4.89% (inactive)
Cn1cccc1C(=O)N1CCC[C@@]2(CCN(C(c3ccccc3)c3ccccc3)C2)C1	9.39% (inactive)
CC(=O)N1CCC2(CCCN(Cc3nccs3)C2)CC1	6.5% (inactive)
O=c1c(CCc2ccccc2)nc2cncnc2n1Cc1ccccc1Cl	-12.1% (inactive)
Cc1cnc(CNc2ncncc2-c2ccc(N(C)C)cc2)cn1	13.6% (inactive)
COc1ccccc1-c1ccc2ncnc(NC3CC3)c2c1	-18.1% (inactive)
COc1ncc2nc(-c3ccc(Cl)cc3)c(=O)n(-c3ccccc3)c2n1	0.109% (inactive)
Cc1cnc(CNc2ccnc(-c3ccc(C(=O)N(C)C)cc3)n2)cn1	0.405% (inactive)
Fc1ccc(Nc2ncnc3ccc(-c4ccoc4)cc23)cc1	-22.9% (inactive)
COC(=O)N1CCC2(CC1)CCN(c1ccncc1)CC2	20.2% (inactive)
CC(C)NC(=O)N1CC2(CCN(C(=O)c3cccn3C)CC2)C1	4.27% (inactive)
COC(=O)N1CCC2(CCN(C(=O)Nc3cccc(C#N)c3)CC2)CC1	7.14% (inactive)
FC(F)(F)c1ccccc1-c1nc(-n2ccnc2)c2ccccc2n1	-3.35% (inactive)
c1ccc2c(Nc3ccncc3)nc(-c3ccoc3)nc2c1	3.23% (inactive)

* * *

Assay: Primary qHTS for small molecule stabilizers of the endoplasmic reticulum resident proteome: Secreted ER Calcium Modulated Protein (SERCaMP) assay (AID 1508630); also: % is scaled to controls: 0 for no effect and ±100 for the full control effect
Details: SH-SY5Y GLuc-SERCaMP (Gaussia luciferase released on ER calcium loss) secretion, thapsigargin, luminescence; series mostly up to 38.4 µM
Records with an inconclusive call do not appear. The source made the active and inactive calls. The call rests on the fitted dose curve; in most records, active means well fitted inhibition curve with a large enough effect; inconclusive means small, poorly fitted or top-dose-only effect; inactive means no such curve, though single readings can be large or run the other way.

Mol	outcome
COc1ncc2nc(-c3cccs3)c(=O)n(Cc3ccc(F)cc3)c2n1	inactive
CNc1nc(-c2cccc(C#N)c2)nc2ccccc12	inactive
COC(=O)N1CCC2(CC1)CCN(c1ccncc1)CC2	inactive
CCNc1ncc2nc(-c3cccs3)c(=O)n(Cc3ccc(F)cc3)c2n1	inactive
COc1ncc2nc(CCc3ccccc3)c(=O)n(Cc3cccs3)c2n1	inactive
CN(C)C(=O)c1ccc(-c2ccc3ncnc(N4CCNCC4)c3c2)cc1	inactive
N#Cc1ccccc1-c1ccc2ncnc(NC3CC3)c2c1	inactive
c1cncc(CNc2nc(-c3ccc4c(c3)OCO4)nc3ccccc23)c1	inactive
c1nc(NC2CC2)c2cc(-c3ccoc3)ccc2n1	inactive
O=C(c1ccco1)N1CCC[C@@]2(CCN(c3cccc(-c4ccccc4)c3)C2)C1	inactive
COc1ccccc1-c1nc(NCCN2CCOCC2)c2ccccc2n1	inactive
CN(C)c1ncc2nc(-c3cccs3)c(=O)n(CCc3ccccc3)c2n1	inactive
Clc1ccccc1-c1nccc(NCc2ccccc2)n1	inactive
O=C(c1csnn1)N1CCC2(CC1)CCN(c1cccc(-c3ccccc3)c1)CC2	inactive
Cc1cnc(CNc2cc(-c3cccnc3)ncn2)cn1	inactive
COCCn1c(=O)c(-c2ccc(OC)cc2)nc2cnc(OCc3ccccc3)nc21	inactive
COc1ccccc1CNc1cc(-c2ccccc2Cl)ncn1	inactive
COc1cccc(Cn2c(=O)c(-c3ccc(F)c(F)c3)nc3cncnc32)c1	inactive
O=C(Nc1ccccc1)N1CC2(CCN(S(=O)(=O)c3ccccc3)CC2)C1	inactive
Cc1noc(C)c1C(=O)N1CCC2(CCCN(C(=O)Nc3cccc(C#N)c3)C2)CC1	inactive
c1cncc(-c2nccc(-n3ccnc3)n2)c1	inactive
COC(=O)N1CCC[C@@]2(CCN(C(=O)NC(C)C)C2)C1	inactive
COc1ccc(CNc2ccnc(-c3ccccc3OC)n2)c(OC)c1	inactive

* * *

Test system: PC26
Assay: qHTS profiling for inhibitors of Plasmodium falciparum proliferation (AID 504749);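 also: 0% = DMSO vehicle and full inhibition = artemisinin control; nearly all actives have a fitted effect of over 60% in size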
Conditions: P. falciparum in erythrocytes, SYBR Green DNA, 72 h; series mostly up to 12.8 µM
Method: NIH National Institute of Allergy and Infectious Diseases [NIAID] NIH Chemical Genomics Center [NCGC] […] Because mature erythrocytes lack DNA, only Plasmodium-derived DNA is detected. NCGC Assay Protocol Summary: The SYBR Green viability assay was adapted from a method described previously (Plouffe et al., 2008). […] The following morning, fluorescence intensity at 485(14) nm excitation and 535(25) nm emission wavelengths was measured on an EnVision (Perkin Elmer) plate reader. […]
Records with an inconclusive call do not appear. Activity calls are given as the source filed them. Calls come from the whole dose curve; as a rule, active = well fitted inhibition curve with a large enough effect; inconclusive = small, poorly fitted or top-dose-only effect; inactive = flat fitted curve, though single readings scatter.

Mol	outcome
CC(C)(C)NC[C@H](O)c1cc(O)cc(O)c1	inactive
CC(C)N1CCN(c2ccc(OC[C@@H]3CO[C@@](Cn4cncn4)(c4ccc(Cl)cc4Cl)O3)cc2)CC1	inactive
N[C@@H](CO)C(=O)NNCc1ccc(O)c(O)c1O	inactive
NS(=O)(=O)c1cc([C@@]2(O)NC(=O)c3ccccc32)ccc1Cl	inactive
CN(C)[C@@H]1C(=O)C(C(N)=O)=C(O)[C@]2(O)C(=O)C3=C(O)c4c(O)ccc(Cl)c4[C@H](O)[C@H]3C[C@@H]12	inactive
CN(N=O)C(=O)N[C@H]1[C@@H](O)[C@H](O)[C@H](CO)O[C@@H]1O	inactive
CCC[C@H]1C(=O)N2C(N(C)C)=Nc3ccc(C)cc3N2C1=O	inactive
CC[C@@]12CCCN3CCc4c(n(c5ccccc45)C(=O)C1)[C@H]32	inactive
Cn1c(=O)c2c(ncn2C[C@@H](O)CO)n(C)c1=O	inactive
O=c1[nH]c(=O)n([C@@H]2C[C@H](O)[C@H](CO)O2)cc1I	inactive

* * *

Experiment: NFAT Signaling Pathway (AID 444);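 also: carbachol stimulus at about its EC50 of 1 µM final; % is scaled to controls: 0 for no effect and ±100 for the full control effect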
Conditions: Jurkat NFAT-bla M1, carbachol, beta-lactamase ratio, 5 h; at 7.69 µM (top of the series) unless noted
Results filed as inconclusive are left out.
Assay readout: activity change, negative = inhibition (%)

Mol	Unit abbreviation	Endpoint value
CCNc1ncc2nc(-c3ccc(OC)cc3)c(=O)n(CCC#N)c2n1	%	-15.6
COc1ccccc1CCn1c(=O)cnc2cncnc21	%	6.39
Cc1cccc(CNc2ncnc3ccc(-c4ccccc4C#N)cc23)c1	%	12.9
COc1cccc(-c2nccc(NCCc3c[nH]c4ccc(OC)cc34)n2)c1	%	-15.8
COc1ccc(Oc2ncc3ncc(=O)n(CCC#N)c3n2)cc1	%	-5.59
O=S(=O)(c1ccccc1)N1CCC[C@@]2(CCN(Cc3nccs3)C2)C1	%	-1.46
O=c1cnc2cnc(Oc3cccc(Cl)c3)nc2n1C1CC1	%	0.268
Cn1c(=O)c(-c2ccc(Cl)cc2)nc2cnc(OCc3ccccc3)nc21	%	-7.07
CN(Cc1ccco1)c1ccnc(-c2ccoc2)n1	%	-2.04
CC(C)NC(=O)N1CCCC2(CCN(C(=O)c3csnn3)CC2)C1	%	-7.86
COCCNc1ncnc2ccc(-c3ccccc3C(F)(F)F)cc12	%	18.9

* * *

Assay: Stat Signaling Pathway (AID 446);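 also: ME-180 cervical cancer cells given 40 pM IL-6 alongside compound; SIE-controlled beta-lactamase reporter measured as 460/530 nm FRET emission ratio; % is scaled to controls: 0 for no effect and ±100 for the full control effect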
Conditions: ME-180 (cervical carcinoma) SIE beta-lactamase reporter, IL-6 stimulated, 5 h; at 7.69 µM (top of the series) unless noted
Inconclusive results are not listed. Active and inactive are the calls of the source. Calls come from the whole dose curve; as a rule, active = well fitted curve in either direction with a large enough effect (not every such curve was filed as active); inconclusive = small, poorly fitted or top-dose-only effect, or another doubt; inactive = flat fitted curve, though single readings scatter.
Outcome codes: active, inactive

Mol	Assigned label
COc1ccc(C(=O)N2CCC3(CCCN(Cc4ccc(C#N)cc4)C3)CC2)cc1	inactive
CS(=O)(=O)N1CCC2(CCCN(C(=O)Nc3cccc(F)c3)C2)CC1	inactive
C[C@H](NCCc1ccc(O)cc1)[C@@H](O)c1ccc(O)cc1	inactive
O=C(c1cc(C(F)(F)F)cc(C(F)(F)F)c1)N1CCC[C@@]2(CCN(c3ccccc3)C2)C1	inactive
O=c1c(-c2cccc(F)c2)nc2cncnc2n1-c1ccccc1	inactive
CN1CCN(c2ncc3ncc(=O)n(-c4ccccc4)c3n2)CC1	inactive
FC(F)(F)c1cc(CN2CC[C@@]3(CCCNC3)C2)cc(C(F)(F)F)c1	inactive
N#Cc1cccc(-c2nc(Nc3ccccc3)c3ccccc3n2)c1	inactive
COC(=O)N1CCC[C@@]2(CCN(c3ccccc3)C2)C1	inactive
COc1cccc(Cn2c(=O)c(-c3ccc(Cl)cc3)nc3cnc(N(C)C)nc32)c1	active
